Tested on: NL4-3 strain of HIV-1
Experiment: microbe, parasite or virus in culture
Type: cell-based
Details: Human immunodeficiency virus 1, NL43, 120 h; concentration leading to 50% of cyto-protection; MT4 cells infected with NL4.3 virus; 5 days incubation; CellTiter-Glo; read-out: EC50
Description: The antiviral activity, particularly against HIV, of compounds according to the invention is evaluated by the protocol described below. Preparation of Virus stock of the NL4-3 strain of HIV-1 […] MT4 cells (from the NIH AIDS Research and Reference Reagent Program) in RPMI complete medium were counted (10×10^6 cells per well in Falcon 353047 Multiwell™ 24 well) and infected for 2 hours at 37°, at a multiplicity of infection (moi) of 0.0001-0.00001. […]
Could you please report measured log10(EC50) for the items listed next?
Field: value | Transform: log10 | Quantity: EC50 | Unit: µM

Quick batch: log10(EC50) for everything below.
1. Cc1sc(C)c(C(OC(C)(C)C)C(=O)O)c1-c1ccc(Cl)cc1 (centres unmarked) [Example 50]
2. CC(C)(C)OC(C(=O)O)c1c(C(F)(F)F)nn(C2CCCCC2)c1-c1ccc2c(c1)CCCO2 (centres unmarked) [Example 54]
3. Cc1sc(C)c(C(OC(C)(C)C)C(=O)O)c1-c1ccccc1Cl (centres unmarked) [Example 51]
4. Cc1sc(Cl)c(-c2ccc3c(c2)CCCO3)c1C(OC(C)(C)C)C(=O)O (centres unmarked) [Example 44]
5. Cc1cccc2sc(C(OC(C)(C)C)C(=O)O)c(-c3ccc4c(c3)CCCO4)c12 (centres unmarked) [Example 23]
6. Cc1sc(C)c(C(SC(C)(C)C)C(=O)O)c1-c1ccc2c(c1)CCCO2 (centres unmarked) [Example 32]

1. 1.64
2. 0.34
3. 1.61
4. 1.20
5. 1.36
6. 1.41

Could I get log10(EC50) for every one of these entries?
1. CC1=C(c2ccc3c(c2)CCCO3)C(C(OC(C)(C)C)C(=O)O)=C(C)S1(=O)=O (centres unmarked) [Example 18]
2. Cc1sc(C)c(C(OC(C)(C)C)C(=O)O)c1C1=CCCCC1 (centres unmarked) [Example 29]

1.53
1.52

The measured values listed here are drawn from patent US9238026B2.
